# Test system: Mus musculus
# PROTOCOL SUMMARY: Antinociceptive activity in po dosed Albino-Swiss mouse assessed as acetic acid-induced abdominal writhing compound administered 30 mins prior challenge measured over 30 mins post acetic acid challenge
# Type: functional
# STATED CONDITIONS: Abdomen
Could you please mark 1 (yes) for values of ED50 below 20 µmol/kg and 0 (no) for values at or above it?

COMPOUND	CAT
CC(C)Cc1ccc(C(C)C(=O)O)cc1 (centres undefined)	0 (no)
CC(=O)Oc1ccccc1C(=O)O	0 (no)
CC(C)Cc1ccc(C(C)C(=O)OC[C@@H]2C[C@H](Cl)C[C@H](c3cccc4ccccc34)O2)cc1 (mixture of isomers)	1 (yes)

Turning now to a further record.
Threshold test, ED50 < 20 µmol/kg: CC(C(=O)O)c1cccc(C(=O)c2ccccc2)c1 (centres undefined)
0 (no)

----------
# Tested on: Mus musculus
# PROTOCOL SUMMARY: Antinociceptive activity in po dosed Albino-Swiss mouse assessed as acetic acid-induced abdominal writhing compound administered 30 mins prior challenge measured over 30 mins post acetic acid challenge
# Assay type: functional
# STATED CONDITIONS: Abdomen
REPORTED METRIC: ED50
Form field: result (number plus unit)

In the examples that follow, each entry is paired with its recorded ED50.
COMPOUND	ED50
COc1ccc2c(c1)c(CC(=O)O)c(C)n2C(=O)c1ccc(Cl)cc1	72.6 µmol/kg
COc1ccc2cc(C(C)C(=O)OC[C@@H]3C[C@H](Cl)C[C@H](c4cccc5ccccc45)O3)ccc2c1 (mixture of isomers)	4.6 µmol/kg
COc1ccc2c(c1)c(CC(=O)OC[C@@H]1C[C@H](Cl)C[C@H](c3cccc4ccccc34)O1)c(C)n2C(=O)c1ccc(Cl)cc1 (racemic)	13.8 µmol/kg

As a next step, examine the compound that follows.
State, in one line, measured ED50 of OC[C@@H]1C[C@H](Cl)C[C@H](c2cccc3ccccc23)O1 (racemic)
28 µmol/kg

----------
# Tested on: Mus musculus
# PROTOCOL SUMMARY: Antinociceptive activity in po dosed Albino-Swiss mouse assessed as acetic acid-induced abdominal writhing compound administered 30 mins prior challenge measured over 30 mins post acetic acid challenge
# Format: functional
# STATED CONDITIONS: Abdomen
REPORTED METRIC: ED50
Form field: result (number plus unit)

In the examples that follow, each entry is paired with its recorded ED50.
COMPOUND	ED50
CC(=O)Oc1ccccc1C(=O)OC[C@@H]1C[C@H](Cl)C[C@H](c2cccc3ccccc23)O1 (racemic)	20.4 µmol/kg
O=C(Cc1ccccc1Nc1c(Cl)cccc1Cl)OC[C@@H]1C[C@H](Cl)C[C@H](c2cccc3ccccc23)O1 (racemic)	3.17 µmol/kg
CC(C(=O)OC[C@@H]1C[C@H](Cl)C[C@H](c2cccc3ccccc23)O1)c1cccc(C(=O)c2ccccc2)c1 (mixture of isomers)	14 µmol/kg
COc1ccc2cc([C@H](C)C(=O)O)ccc2c1 [NAPROXEN]	21.8 µmol/kg

State, in one line, measured ED50 of O=C(O)Cc1ccccc1Nc1c(Cl)cccc1Cl [DICLOFENAC POTASSIUM]
32.5 µmol/kg
